test: Bioavailability study: Latrepirdine concentration in blood serum after oro-gastric gavage; details: male, Wistar, rat, serum, oral, 10 mg/kg, Concentration of Latrepirdine in blood serum, 30 min after administration; 10 mg/kg oro-gastric gavage, suspension in corn oil; rat
Endpoint name: concentration at 30 min (ng/mL)
// units = ng/mL; emit number, no label

**Q:** So what's the measured concentration at 30 min for this one? "Cc1ccc2c(c1)c1c(n2CCc2ccc(C)nc2)CCN(C)C1"
**A:** 7

---

experiment: Bioavailability study: Latrepirdine concentration in blood serum after oro-gastric gavage; conditions: male, Wistar, rat, plasma, po, 10 mg/kg
Endpoint name: Tmax (min)
// units = min; emit number, no label

**Q:** So what's the measured Tmax for this one? "Cc1ccc2c(c1)c1c(n2CCc2ccc(C)nc2)CCN(C)C1"
**A:** 15
